Ref: ChEMBL document CHEMBL3352097

Molecular target: Transcription factor Jun (Homo sapiens, UniProt P05412)
Sequence (P05412 whole entry): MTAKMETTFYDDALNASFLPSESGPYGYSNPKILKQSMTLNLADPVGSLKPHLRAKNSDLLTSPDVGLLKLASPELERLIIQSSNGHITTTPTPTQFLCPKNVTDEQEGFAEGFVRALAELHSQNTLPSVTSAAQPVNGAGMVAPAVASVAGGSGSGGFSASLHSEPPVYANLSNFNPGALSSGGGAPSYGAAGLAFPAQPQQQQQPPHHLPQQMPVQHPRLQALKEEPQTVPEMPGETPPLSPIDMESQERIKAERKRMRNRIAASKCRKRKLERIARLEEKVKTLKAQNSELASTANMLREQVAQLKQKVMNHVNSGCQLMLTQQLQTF
Assay: Inhibition of AP-1-mediated transcriptional activation in human Jurkat cells by luciferase reporter gene assay
Type: cell-based
Mark T only for IC50 values smaller than 800 nM; exact matches and larger values are F.

Below, 6 compounds whose answers are already recorded.
smi	assignedCategory
Cc1cc(C(=O)Nc2ccc(C(F)(F)F)cc2C(F)(F)F)nc(Cl)n1	F
O=C(Nc1cc(C(F)(F)F)cc(C(F)(F)F)c1)c1nnc(Cl)cc1C(F)(F)F	F
CCOC(=O)c1cnc(N(C)N2C(=O)C=C(C)C2=O)nc1C(F)(F)F	T
CCOC(=O)c1cnc(NN2C(=O)C=C(C)C2=O)nc1C(F)(F)F	F
CCOC(=O)c1cnc(-c2ccccc2)nc1NN1C(=O)C=C(C)C1=O	T
CCc1nc(NN2C(=O)C=C(C)C2=O)ncc1-c1coc(C)n1	F

Ask: Find out if reported IC50 for O=C(c1cnc(Cl)nc1C(F)(F)F)N1COCc2ccc(C(F)(F)F)cc21 is less than 800 nM
Result: F
